Hello, the source for this data is PubChem BioAssay, in case you need it.

assay: yeast AGP1-GFP level changes, GLN3 branch – cell-based, multiplex flow cytometry, S. cerevisiae, primary screen (AID 1887); conditions: 3 h, at 10 µM;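 also: AGP1-GFP fusion strain of S. cerevisiae within a five-strain barcoded multiplex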
Inconclusive results are not listed. Calls of active or inactive are those of the source.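 The calls were made as follows: active = GFP signal above the screen-wide mean plus 3 SD, that is over about 124.5% of the solvent control; inconclusive = no reading because the compound's own fluorescence disturbed strain identification; inactive = the rest.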
# valid calls are active, inactive; nothing else

Below, 6 molecules whose answers are already recorded.
[[record]]
molecule = "CCOCC(=O)Nc1nc2ccccc2s1"
group_label = "inactive"

[[record]]
molecule = "Cc1ccc(C2CC(=O)C(C=NCCN3CCN(C(=S)Nc4ccccc4)CC3)=C(O)C2)cc1 (stereo not given)"
group_label = "inactive"

[[record]]
molecule = "COc1cc2c(cc1OC)C(=S)NC(C)(C)C2"
group_label = "inactive"

[[record]]
molecule = "COCCN(CCOC)Cc1c(C)[nH]c2c(C)c(C)ccc2c1=O"
group_label = "inactive"

[[record]]
molecule = "CCCC(=O)O[C@]1(C(=O)CCl)[C@@H](C)C[C@H]2[C@@H]3CCC4=CC(=O)C=C[C@]4(C)[C@@]3(F)C(=O)C[C@@]21C"
group_label = "inactive"

[[record]]
molecule = "O=C(NCc1ccc(N2CCCC2=O)cc1)c1cccc(Cl)c1"
group_label = "inactive"


For COC(=O)c1sccc1NC(=O)Nc1ccccc1F , what call appears in the results of this test?
inactive

Try this molecule next: CC[N+]1(C)CC2CCC(C)(C1)C2(C)C (stereo not given)
inactive

Now the molecule Cc1ccc(C(=O)Nc2ccccc2C(=O)NC(C(=O)O)C(C)C)cc1 (stereo not given)
inactive

Please do the same for Cn1c(SCC(=O)c2ccccc2)nnc1-c1ccncc1 as well.
inactive

Now consider COc1cc2c(cc1OC)C(c1ccc(-c3cc(Cl)ccc3Cl)o1)=NCC2 .
inactive

How about this molecule: O=C(O)c1ccccc1Nc1cccc(C(F)(F)F)c1
inactive

Also check CSc1ccc(CN2CCN(CCC(C)C)C(CCO)C2)cc1 (stereo not given)
active
